Each entry below carries its recorded Inhibitory rate against NF-κB activation (%).
# Tested on: NF-κ B activation
# TEST DETAILS: Inhibitory activity of NF-κB activation, luciferase reporter assay under TNF-α stimulation in HepG2
# Assay type: cell-based, human
# EXPERIMENTAL PARAMETERS: Drug concentration at 10 μg/mL; HepG2, TNF-α 40 ng/ml, 4 hours
READOUT NAME: Inhibitory rate against NF-κB activation (%)

{"MOL SMILES": "Cc1ccc(O)c(C(=O)Nc2cc(Cl)cc(Cl)c2)c1", "EXPERIMENTAL RESULT": "88.7%"}
{"MOL SMILES": "O=C(Nc1cc(C(F)(F)F)ccc1F)c1cc(Cl)ccc1O", "EXPERIMENTAL RESULT": "95.9%"}
{"MOL SMILES": "O=C(Nc1cc(C(F)(F)F)ccc1Oc1ccc2ccccc2c1)c1cc(Cl)ccc1O", "EXPERIMENTAL RESULT": "98.7%"}
{"MOL SMILES": "O=C(Nc1cc(C(F)(F)F)cc(C(F)(F)F)c1)c1ccc(O)cc1O", "EXPERIMENTAL RESULT": "88.6%"}
{"MOL SMILES": "O=C(Nc1cc(C(F)(F)F)ccc1OCC(F)(F)F)c1cc(Cl)ccc1O", "EXPERIMENTAL RESULT": "96.2%"}
{"MOL SMILES": "O=C(Nc1cc(C(F)(F)F)cc(C(F)(F)F)c1)c1cc(C(F)(F)C(F)(F)F)ccc1O", "EXPERIMENTAL RESULT": "95.4%"}

###

# System: NF-κ B activation
# TEST DETAILS: Inhibitory activity of NF-κB activation, luciferase reporter assay under TNF-α stimulation in HepG2
# Format: cell-based, human
# EXPERIMENTAL PARAMETERS: Drug concentration at 1 μg/mL; HepG2, TNF-α 40 ng/ml, 4 hours
Each entry below carries its recorded Inhibitory rate against NF-κB activation (%).
READOUT NAME: Inhibitory rate against NF-κB activation (%)

{"COMPOUND": "O=C(Nc1cc(C(F)(F)F)cc(C(F)(F)F)c1)c1cc(NC(=S)Nc2ccccc2)ccc1O [compound 47]", "EXPERIMENTAL RESULT": 51.8}
{"COMPOUND": "CCCCCCOc1ccc(S(C)(=O)=O)cc1NC(=O)c1cc(Cl)ccc1O [compound 165]", "EXPERIMENTAL RESULT": 95.9}
{"COMPOUND": "CC(O)c1ccc(O)c(C(=O)Nc2cc(C(F)(F)F)cc(C(F)(F)F)c2)c1 (centres unmarked) [compound 13]", "EXPERIMENTAL RESULT": 76.8}
{"COMPOUND": "Cc1cc(C)cc(NC(=O)c2cc(Br)ccc2O)c1 [compound 137]", "EXPERIMENTAL RESULT": 86.3}
{"COMPOUND": "O=C(Nc1cc(C(F)(F)F)cc(C(F)(F)F)c1)c1cc(CCc2ccccc2)ccc1O [compound 24]", "EXPERIMENTAL RESULT": 92.3}
{"COMPOUND": "O=C(Nc1cc(C(F)(F)F)cc(C(F)(F)F)c1)c1cc2ccccc2cc1O [compound 72]", "EXPERIMENTAL RESULT": 94.6}
{"COMPOUND": "CSc1ccc(C(F)(F)F)cc1NC(=O)c1cc(Cl)ccc1O [compound 96]", "EXPERIMENTAL RESULT": 94.6}
{"COMPOUND": "O=C(Nc1nc(-c2ccccc2)c(C(=O)NCCc2ccccc2)s1)c1cc(Br)ccc1O [compound 223]", "EXPERIMENTAL RESULT": 33.3}
{"COMPOUND": "O=C(Nc1cc(C(F)(F)F)ccc1Cl)c1cc([N+](=O)[O-])ccc1O [compound 99]", "EXPERIMENTAL RESULT": 54.3}
{"COMPOUND": "Cc1ccc(S(=O)(=O)c2ccc(Cl)c(NC(=O)c3cc(Cl)ccc3O)c2)cc1 [compound 169]", "EXPERIMENTAL RESULT": 31.6}
{"COMPOUND": "CCCCOc1ccc(OCCCC)c(NC(=O)c2cc(Cl)ccc2O)c1 [compound 161]", "EXPERIMENTAL RESULT": 94.2}
{"COMPOUND": "CC(=O)Oc1ccc(Cl)cc1C(=O)Nc1cc(C(F)(F)F)ccc1Cl [compound 89]", "EXPERIMENTAL RESULT": 96.7}
{"COMPOUND": "O=C(Nc1nc(C(F)(F)F)c(Br)s1)c1cc(Br)ccc1O [compound 187]", "EXPERIMENTAL RESULT": 85.3}
{"COMPOUND": "O=C(Nc1cc(C(F)(F)F)cc(C(F)(F)F)c1)c1cc(-n2cccc2)ccc1O [compound 27]", "EXPERIMENTAL RESULT": 93.8}
{"COMPOUND": "O=C(Nc1cc(C(F)(F)F)cc(C(F)(F)F)c1)c1cc(C(F)(F)F)ccc1O [compound 25]", "EXPERIMENTAL RESULT": 96.4}
{"COMPOUND": "O=C(Nc1cc([N+](=O)[O-])cc([N+](=O)[O-])c1)c1cc(Br)ccc1O [compound 133]", "EXPERIMENTAL RESULT": 91.0}
{"COMPOUND": "N#CC(=Cc1ccc(O)c(C(=O)Nc2cc(C(F)(F)F)cc(C(F)(F)F)c2)c1)C(=O)O [compound 18]", "EXPERIMENTAL RESULT": 59.7}

###

# System: NF-κ B activation
# TEST DETAILS: Inhibitory activity of NF-κB activation, luciferase reporter assay under TNF-α stimulation in HepG2
# Type: cell-based, human
# EXPERIMENTAL PARAMETERS: Drug concentration at 10 μg/mL; HepG2, TNF-α 40 ng/ml, 4 hours
Each entry below carries its recorded Inhibitory rate against NF-κB activation (%).
READOUT NAME: Inhibitory rate against NF-κB activation (%)

{"MOL SMILES": "O=C(Nc1cc(C(F)(F)F)ccc1N1CCCCC1)c1cc(Cl)ccc1O", "UNIT ANNOTATION": "%", "EXPERIMENTAL RESULT": 97.3}
{"MOL SMILES": "Cc1ccc(O)c(C(=O)Nc2cc(C(C)(C)C)cc(C(C)(C)C)c2)c1", "UNIT ANNOTATION": "%", "EXPERIMENTAL RESULT": 91.0}
{"MOL SMILES": "Cc1cc(Oc2ccc(C(F)(F)F)cc2NC(=O)c2cc(Cl)ccc2O)cc(C)c1Cl", "UNIT ANNOTATION": "%", "EXPERIMENTAL RESULT": 98.4}
{"MOL SMILES": "Cc1ccc(O)c(C(=O)Nc2cc(C(F)(F)F)ccc2C)c1", "UNIT ANNOTATION": "%", "EXPERIMENTAL RESULT": 98.3}
{"MOL SMILES": "CC(=O)Oc1ccc(Cl)cc1C(=O)Nc1cc(C(F)(F)F)ccc1Cl", "UNIT ANNOTATION": "%", "EXPERIMENTAL RESULT": 97.4}
{"MOL SMILES": "O=C(Nc1cc(Cl)cc(Cl)c1)c1cc2ccccc2cc1O", "UNIT ANNOTATION": "%", "EXPERIMENTAL RESULT": 95.1}
{"MOL SMILES": "O=C(Nc1cc(F)cc(F)c1)c1cc(Br)ccc1O", "UNIT ANNOTATION": "%", "EXPERIMENTAL RESULT": 96.8}
{"MOL SMILES": "O=C(Nc1cc(Cl)cc(Cl)c1)c1ccc(Cl)cc1O", "UNIT ANNOTATION": "%", "EXPERIMENTAL RESULT": 71.8}
{"MOL SMILES": "CCOc1ccc(OCC)c(NC(=O)c2cc(Cl)ccc2O)c1", "UNIT ANNOTATION": "%", "EXPERIMENTAL RESULT": 95.3}

###

Each entry below carries its recorded Inhibitory rate against NF-κB activation (%).
# System: NF-κ B activation
# TEST DETAILS: Inhibitory activity of NF-κB activation, luciferase reporter assay under TNF-α stimulation in HepG2
# Format: cell-based, human
# EXPERIMENTAL PARAMETERS: Drug concentration at 10 μg/mL; HepG2, TNF-α 40 ng/ml, 4 hours
READOUT NAME: Inhibitory rate against NF-κB activation (%)

{"MOL SMILES": "O=C(Nc1cc(C(F)(F)F)ccc1N1CCCC1)c1cc(Br)ccc1O", "EXPERIMENTAL RESULT": "97.8%"}
{"MOL SMILES": "O=C(Nc1cc(C(F)(F)F)cc(C(F)(F)F)c1)c1ccc(O)c(C(=O)Nc2cc(C(F)(F)F)cc(C(F)(F)F)c2)c1", "EXPERIMENTAL RESULT": "94.5%"}
{"MOL SMILES": "CN(C)c1ccc(O)c(C(=O)Nc2cc(C(F)(F)F)cc(C(F)(F)F)c2)c1", "EXPERIMENTAL RESULT": "67.5%"}
{"MOL SMILES": "O=C(Nc1cc(C(F)(F)F)cc(C(F)(F)F)c1)c1cc(Cl)cnc1O", "EXPERIMENTAL RESULT": "82.2%"}
{"MOL SMILES": "COc1ccc(C(F)(F)F)cc1NC(=O)c1cc(Cl)ccc1O", "EXPERIMENTAL RESULT": "98.5%"}
